measuredTarget: T1, RB200 (human, UniProt P00533 25-645; P21860 20-643)
T1 construct: extracellular domain; Purified over Ni-Sepharose, so a His tag is likely on one chain, but none is described; also called parent heterodimer RB200; EGFR/HER3 heterodimer
testDetails: displacement of Eu-EGF from immobilised RB200 by unlabeled HB-EGF
readoutLabel: pKi
Expect pKi as a plain number equal to -log10 of the molar concentration.

Notebook: HB-EGF (ligand, UniProt Q99075 63-148, looked up) DLQEADLDLLRVTLSSKPQALATPNKEEHGKRKKKGKGLGKKRDPCLRKYKDFCIHGECKYVKELRAPSCICHPGYHGERCHGLSL , pKi read as 7.70
